// data source = paper PMC4821887

Examples of molecules with documented % Dead cells (vehicle subtracted) follow.
Tested on: mouse cortical neuron cultures
Details: mouse, 24 h, 10 µM
The response must be a number in % with no trailing unit.

In the examples that follow, each entry is paired with its recorded % Dead cells (vehicle subtracted).
> print(dat)
                                   molecule                   system.tested                     assay.endpoint  reported
1  Cc1nn(-c2cc(NS(C)(=O)=O)c(Cl)cc2Cl)c(=O)n1C(F)F  mouse cortical neuron cultures  % Dead cells (vehicle subtracted)    -1.513
2  CCCN(CC)CC1COC2(CCC(C(C)(C)C)CC2)O1 (stereo not shown)  mouse cortical neuron cultures  % Dead cells (vehicle subtracted)    7.8727
3          Cc1[nH]c(=O)n(C(C)(C)C)c(=O)c1Cl  mouse cortical neuron cultures  % Dead cells (vehicle subtracted)     6.548
4  CC(C)Oc1cc(-n2nc(C(C)(C)C)oc2=O)c(Cl)cc1Cl  mouse cortical neuron cultures  % Dead cells (vehicle subtracted)    5.6039
5              Nc1c(Cl)c(F)nc(OCC(=O)O)c1Cl  mouse cortical neuron cultures  % Dead cells (vehicle subtracted)    -1.905

Query: Which measured % Dead cells (vehicle subtracted) value corresponds to c1ccc(Nc2ccccc2)cc1 ?
Reply: 2.557

Query: Dear colleague, I am looking for the recorded % Dead cells (vehicle subtracted) of the following molecule: COc1ccc(-c2ccccc2)cc1NNC(=O)OC(C)C [Bifenazate]
Reply: 0.1333

Query: What does the record list as % Dead cells (vehicle subtracted) for CCc1cnc(C2=NC(C)(C(C)C)C(=O)N2)c(C(=O)O)c1 (stereo not shown) ?
Reply: 4.704

Query: % Dead cells (vehicle subtracted) for CCN(CC)C(=O)SCc1ccc(Cl)cc1 ?
Reply: -1.522

Query: Could you share which % Dead cells (vehicle subtracted) value was measured for CC(C)C1(C)N=C(c2ncccc2C(=O)O)NC1=O (stereo not shown) ?
Reply: 1.122

Query: Dear colleague, I am looking for the recorded % Dead cells (vehicle subtracted) of the following molecule: CCCOC/C(=N\c1ccc(Cl)cc1C(F)(F)F)n1ccnc1
Reply: 1.241

Query: Suppose we examine the molecule CC(C)N1C(=O)N(c2ccccc2)CS/C1=N\C(C)(C)C ; what % Dead cells (vehicle subtracted) value has been reported?
Reply: -1.5902
